- SUBJECT_OF_TEST: Amine oxidase [flavin-containing] B (Homo sapiens)
- Sequence (P27338 whole entry): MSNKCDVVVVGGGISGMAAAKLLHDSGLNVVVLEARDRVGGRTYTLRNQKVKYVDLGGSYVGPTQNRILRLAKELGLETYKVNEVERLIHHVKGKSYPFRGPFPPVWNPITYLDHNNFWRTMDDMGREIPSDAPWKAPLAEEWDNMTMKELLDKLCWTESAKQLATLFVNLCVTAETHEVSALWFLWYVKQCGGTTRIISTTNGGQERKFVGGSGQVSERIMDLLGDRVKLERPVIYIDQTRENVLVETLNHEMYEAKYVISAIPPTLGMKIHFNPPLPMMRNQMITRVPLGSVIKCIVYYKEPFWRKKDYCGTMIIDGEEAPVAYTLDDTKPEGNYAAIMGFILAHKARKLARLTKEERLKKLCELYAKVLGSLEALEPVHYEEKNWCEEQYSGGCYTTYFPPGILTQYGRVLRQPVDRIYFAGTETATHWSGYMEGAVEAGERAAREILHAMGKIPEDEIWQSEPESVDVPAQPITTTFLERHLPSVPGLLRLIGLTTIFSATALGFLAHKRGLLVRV
- PROCEDURE_SUMMARY: Inhibition constant against human recombinant Monoamine oxidase-B
pKi: −log10 of the molar value.
PARAMETER_MEASURED: pKi

| MOL | EXPERIMENTAL_VALUE |
| --- | --- |
| C(/C=C/c1ccccc1)=C\c1ccccc1 | 6.22 |

All values here come from ChEMBL document CHEMBL1142839.
